- assay.notes: Metabolic stability in pooled human liver microsomes
- Format: in vitro ADME
- measurement.parameters: human liver microsomes 0.5 mg/mL, 1 uM, NADPH, 37° C.
readout.type: Metabolic Stability human (30 minutes), percent of pro-drug metabolized to riluzole (%)
Record the value in %, omitting the unit from your answer.

Take a look at these entries with their results.
COC(=O)Nc1nc2ccc(OC(F)(F)F)cc2s1 0
N[C@H](COCc1ccccc1)C(=O)Nc1nc2ccc(OC(F)(F)F)cc2s1 0
CC(C)COC(=O)Nc1nc2ccc(OC(F)(F)F)cc2s1 14
COC(=O)CCC(=O)Nc1nc2ccc(OC(F)(F)F)cc2s1 34
CCCOC(=O)Nc1nc2ccc(OC(F)(F)F)cc2s1 34

Measured Metabolic Stability human (30 minutes), percent of pro-drug metabolized to riluzole, `O=C(CCC(=O)Nc1nc2ccc(OC(F)(F)F)cc2s1)NCc1cccnc1` : 4

Measured Metabolic Stability human (30 minutes), percent of pro-drug metabolized to riluzole, `NCC(=O)Nc1nc2ccc(OC(F)(F)F)cc2s1` : 7

Measured Metabolic Stability human (30 minutes), percent of pro-drug metabolized to riluzole, `CNCCCCC(=O)Nc1nc2ccc(OC(F)(F)F)cc2s1` : 0

Measured Metabolic Stability human (30 minutes), percent of pro-drug metabolized to riluzole, `O=C(O)CCC(=O)Nc1nc2ccc(OC(F)(F)F)cc2s1` : 0

Measured Metabolic Stability human (30 minutes), percent of pro-drug metabolized to riluzole, `CCOC(=O)Nc1nc2ccc(OC(F)(F)F)cc2s1` : 7

----------
Let's look at some compounds and their measured Plasma Stability mouse (1 hour), percent of pro-drug metabolized to riluzole.
- assay.notes: Plasma stability in fresh mouse plasma
- Type: in vitro ADME
- measurement.parameters: 1 uM, 37° C.
- Description: Plasma Stability: Assessment of plasma stability was carried out by individual incubations of drug candidates in fresh mouse or human control plasma at a concentration of 1 uM for 1 hour at 37° C. […] LC-MS/MS Analysis: An aliquot from each incubation was analyzed by LC-MS/MS with SRM detection in the positive ionization mode using an ABSciex API 5500 QTrap Mass Spectrometer interfaced via the ABSciex Turbo V IonSpray source (ESI) to an Eksigent ExpressHT LC system. […]
Record the value in %, omitting the unit from your answer.

O=C(Cc1ccccc1[N+](=O)[O-])Nc1nc2ccc(OC(F)(F)F)cc2s1 0
CC(C)COC(=O)Nc1nc2ccc(OC(F)(F)F)cc2s1 0
Nc1ccc(C(=O)Nc2nc3ccc(OC(F)(F)F)cc3s2)cc1 0
CC(C)[C@H](N)C(=O)Nc1nc2ccc(OC(F)(F)F)cc2s1 45
NCCCCC(=O)Nc1nc2ccc(OC(F)(F)F)cc2s1 0

Measured Plasma Stability mouse (1 hour), percent of pro-drug metabolized to riluzole, `O=C(CCC(=O)Nc1nc2ccc(OC(F)(F)F)cc2s1)NCc1cccnc1` : 26

Measured Plasma Stability mouse (1 hour), percent of pro-drug metabolized to riluzole, `NCC(=O)Nc1nc2ccc(OC(F)(F)F)cc2s1` : 11

Measured Plasma Stability mouse (1 hour), percent of pro-drug metabolized to riluzole, `N[C@@H](Cc1ccccc1)C(=O)Nc1nc2ccc(OC(F)(F)F)cc2s1` : 0

Measured Plasma Stability mouse (1 hour), percent of pro-drug metabolized to riluzole, `C[C@H](N)C(=O)Nc1nc2ccc(OC(F)(F)F)cc2s1` : 28

Measured Plasma Stability mouse (1 hour), percent of pro-drug metabolized to riluzole, `C[C@@H](N)C(=O)Nc1nc2ccc(OC(F)(F)F)cc2s1` : 36

----------
Let's look at some compounds and their measured Metabolic Stability human (30 minutes), percent of pro-drug metabolized to riluzole.
- assay.notes: Metabolic stability in pooled human liver microsomes
- Assay type: in vitro ADME
- measurement.parameters: human liver microsomes 0.5 mg/mL, 1 uM, NADPH, 37° C.
Record the value in %, omitting the unit from your answer.

Take a look at these entries with their results.
compound	observed
NCCCCC(=O)Nc1nc2ccc(OC(F)(F)F)cc2s1 [Cpd 26]	19
Nc1ccc(C(=O)Nc2nc3ccc(OC(F)(F)F)cc3s2)cc1 [Cpd 28]	80

Measured Metabolic Stability human (30 minutes), percent of pro-drug metabolized to riluzole, CN(C)CCOC(=O)Nc1nc2ccc(OC(F)(F)F)cc2s1 [Cpd 18] : 10

----------
- assay.notes: Plasma stability in fresh mouse plasma
- Type: in vitro ADME
- measurement.parameters: 1 uM, 37° C.
Let's look at some compounds and their measured Plasma Stability mouse (1 hour), percent of pro-drug metabolized to riluzole.
Record the value in %, omitting the unit from your answer.

Take a look at these entries with their results.
CN(C)CCCOC(=O)Nc1nc2ccc(OC(F)(F)F)cc2s1 0
CC(C)(C)OC(=O)CCC(=O)Nc1nc2ccc(OC(F)(F)F)cc2s1 0
COC(=O)CCC(=O)Nc1nc2ccc(OC(F)(F)F)cc2s1 99

Measured Plasma Stability mouse (1 hour), percent of pro-drug metabolized to riluzole, `O=C(O)CCC(=O)Nc1nc2ccc(OC(F)(F)F)cc2s1` : 0

Measured Plasma Stability mouse (1 hour), percent of pro-drug metabolized to riluzole, `CCCCOC(=O)Nc1nc2ccc(OC(F)(F)F)cc2s1` : 9

Measured Plasma Stability mouse (1 hour), percent of pro-drug metabolized to riluzole, `N[C@H](Cc1ccccc1)C(=O)Nc1nc2ccc(OC(F)(F)F)cc2s1` : 47

Measured Plasma Stability mouse (1 hour), percent of pro-drug metabolized to riluzole, `CNCCCCC(=O)Nc1nc2ccc(OC(F)(F)F)cc2s1` : 0

Measured Plasma Stability mouse (1 hour), percent of pro-drug metabolized to riluzole, `CCOC(=O)Nc1nc2ccc(OC(F)(F)F)cc2s1` : 0

----------
Let's look at some compounds and their measured SIF (3 hours), percent of pro-drug metabolized to riluzole.
- assay.notes: Stability in Simulated Intestinal Fluid (SIF)
- Type: in vitro ADME
- measurement.parameters: SIF:acetonitrile 9:1, 0.01 mg/mL, 37° C.
Record the value in %, omitting the unit from your answer.

Take a look at these entries with their results.
CC(C)(C)OC(=O)CCC(=O)Nc1nc2ccc(OC(F)(F)F)cc2s1 0
CN(C)CCOC(=O)Nc1nc2ccc(OC(F)(F)F)cc2s1 0
CNCCCCC(=O)Nc1nc2ccc(OC(F)(F)F)cc2s1 0
CCOC(=O)Nc1nc2ccc(OC(F)(F)F)cc2s1 0
O=C(CCC(=O)Nc1nc2ccc(OC(F)(F)F)cc2s1)NCc1cccnc1 10
O=C(CCC(=O)Nc1nc2ccc(OC(F)(F)F)cc2s1)NCCN1CCOCC1 60

Measured SIF (3 hours), percent of pro-drug metabolized to riluzole, `C[C@@H](N)C(=O)Nc1nc2ccc(OC(F)(F)F)cc2s1` : 50

Measured SIF (3 hours), percent of pro-drug metabolized to riluzole, `CN(C)CCCOC(=O)Nc1nc2ccc(OC(F)(F)F)cc2s1` : 0

Measured SIF (3 hours), percent of pro-drug metabolized to riluzole, `NCC1(CC(=O)Nc2nc3ccc(OC(F)(F)F)cc3s2)CCCCC1` : 50

Measured SIF (3 hours), percent of pro-drug metabolized to riluzole, `CCCOC(=O)Nc1nc2ccc(OC(F)(F)F)cc2s1` : 0

Measured SIF (3 hours), percent of pro-drug metabolized to riluzole, `C[C@H](N)C(=O)Nc1nc2ccc(OC(F)(F)F)cc2s1` : 50

Measured SIF (3 hours), percent of pro-drug metabolized to riluzole, `COC(=O)CCC(=O)Nc1nc2ccc(OC(F)(F)F)cc2s1` : 0

Measured SIF (3 hours), percent of pro-drug metabolized to riluzole, `O=C(O)CCC(=O)Nc1nc2ccc(OC(F)(F)F)cc2s1` : 0

Measured SIF (3 hours), percent of pro-drug metabolized to riluzole, `NCCCCC(=O)Nc1nc2ccc(OC(F)(F)F)cc2s1` : 0

Each recorded value in this set is attributed to patent US12343347B2.
